test system: ULK kinase; test: pATG13 levels of mutant KRas A549 cells after treatment with ULK inhibitors in combination with trametinib (ELISA); format: cell-based, human; details: A549 (KRAS mutant) lung cancer cells, 250 nM trametinib, overnight, pS318-ATG13
pIC50: −log10 of the molar value.
property: pIC50

Please review the following examples before continuing.
Lookup result for CN1CCN(c2ccc(Nc3cc(NCCCN4CCOCCC4=O)c(C(F)(F)F)cn3)cc2)CC1 [Example 110] ; measured pIC50: 6.52 to 7.00

Lookup result for CN1CCN(c2ccc(Nc3ncc(Cl)c(NCCCN4CCCOCC4=O)n3)c(C3CC3)c2)CC1 [Example 55] ; measured pIC50: 6.52 to 7.00

Lookup result for CN1CCN(c2ccc(Nc3cc(NCCCN4CCCCC4=O)c(C(F)(F)F)cn3)cc2)CC1 [Example 103] ; measured pIC50: 7.00 to 8.00

Lookup result for CCN1CCN(c2ccc(Nc3ncc(C(F)(F)F)c(NCCCN4CCCOCC4=O)n3)c(C(C)C)c2)CC1 [Example 60] ; measured pIC50: 6.52 to 7.00

Lookup result for Cc1cc(N2CCNCC2)ccc1Nc1ncc(C(F)(F)F)c(NCCCN2CCCOC2=O)n1 [Example 37] ; measured pIC50: 6.52 to 7.00

***
Lookup result for CCc1cc(N2CCNCC2)ccc1Nc1ncc(C(F)(F)F)c(NCCCN2CCCOC2=O)n1 [Example 46] ; measured pIC50: 7.00 to 8.00

Lookup result for CN1CCN(c2ccc(Nc3ncc(C(F)(F)F)c(NCCCN4CCCCC4=O)n3)c(C3CC3)c2)CC1 [Example 14] ; measured pIC50: 7.00 to 8.00

Lookup result for CN1CCN(c2cc(C3CC3)c(Nc3ncc(C(F)(F)F)c(NCCCN4CCCCC4=O)n3)cc2F)CC1 [Example 35] ; measured pIC50: 6.52 to 7.00

* * *

tested on: ULK kinase; experiment: pATG13 levels of mutant KRas A549 cells after treatment with ULK inhibitors in combination with trametinib (ELISA); type: cell-based, human; conditions: A549 (KRAS mutant) lung cancer cells, 250 nM trametinib, overnight, pS318-ATG13
pIC50: −log10 of the molar value.
Entries annotated with measured pIC50

Please review the following examples before continuing.
Lookup result for CN1CCN(c2ccc(Nc3ncc(Br)c(NCCCN4CCCOC4=O)n3)c(C3CC3)c2)CC1 [Example 40] ; measured pIC50: 7.00 to 8.00

Lookup result for Cc1cc(N2CCN(C)CC2)ncc1Nc1ncc(C(F)(F)F)c(NCCCN2CCCCC2=O)n1 [Example 91] ; measured pIC50: 6.52 to 7.00

Lookup result for CN1CCN(c2ccc(Nc3cc(NCCCN4CCOCCC4=O)c(C(F)(F)F)cn3)c(C3CC3)c2)CC1 [Example 101] ; measured pIC50: 6.22 to 6.52

Lookup result for CCc1cc(N2CC3CCC(C2)N3C)ccc1Nc1ncc(C(F)(F)F)c(NCCCN2CCCCC2=O)n1 [Example 68] ; measured pIC50: 7.00 to 8.00

Lookup result for COCc1cc(N2CCN(C)CC2)ccc1Nc1ncc(C(F)(F)F)c(NCCCN2CCCOC2=O)n1 [Example 147] ; measured pIC50: 6.52 to 7.00

***
Lookup result for Cc1cc(C2CCNCC2)ccc1Nc1ncc(C(F)(F)F)c(NCCCN2CCCCC2=O)n1 [Example 7] ; measured pIC50: < 6.22

Lookup result for CCc1cc(N2CCCN(C)CC2)ccc1Nc1ncc(C(F)(F)F)c(NCCCN2CCCCC2=O)n1 [Example 31] ; measured pIC50: 6.22 to 6.52

Lookup result for Cc1cc(N2CCN(C)CC2)ccc1Nc1ncc(C(F)(F)F)c(NCCCN2CCOCCC2=O)n1 [Example 65] ; measured pIC50: 7.00 to 8.00

* * *

target: ULK1 kinase (Homo sapiens, UniProt O75385, E37A/K38A); assay: Biochemical assay for ULK1.3 (coupled pyruvate kinase/lactate dehydrogenase assay, peptide substrate); conditions: 0.1 nM ULK1 (residues 1-283), 1 mM ATP
Entries annotated with measured IC50

Please review the following examples before continuing.
Lookup result for `CN1CCCN(c2ccc(Nc3ncc(C(F)(F)F)c(NCCCN4CCCCC4=O)n3)c(C3CC3)c2)CC1` ; measured IC50: 1 to 25 nM

Lookup result for `CCc1cc(N2CCN(C)CC2)ncc1Nc1ncc(C(F)(F)F)c(NCCCN2CCCOCC2=O)n1` ; measured IC50: 25 to 100 nM

Lookup result for `CCc1cc(N2CCN(C)CC2)ccc1Nc1ncc(Cl)c(NCCCN2CCOCCC2=O)n1` ; measured IC50: 25 to 100 nM

***
Lookup result for `O=C1CCOCCN1CCCNc1nc(Nc2ccc(N3CCNCC3)cc2C2CC2)ncc1C(F)(F)F` ; measured IC50: 1 to 25 nM

Lookup result for `O=C1COCCCN1CCCNc1nc(Nc2ccc(N3CCNCC3)cc2C2CC2)ncc1C(F)(F)F` ; measured IC50: 1 to 25 nM

Lookup result for `CN1CCN(c2ccc(Nc3ncc(C(F)(F)F)c(NCCCN4CCCCC4=O)n3)c(C3CC3)c2)CC1` ; measured IC50: 1 to 25 nM

Lookup result for `CCc1cc(N2CCNCC2)ccc1Nc1ncc(C(F)(F)F)c(NCCCN2CCCOC2=O)n1` ; measured IC50: 1 to 25 nM

Lookup result for `CCc1cc(N2CC3CCC(C2)N3C)ccc1Nc1ncc(C(F)(F)F)c(NCCCN2CCOCCC2=O)n1` ; measured IC50: 1 to 25 nM

* * *

molecular target: ULK1 kinase (Homo sapiens, UniProt O75385, E37A/K38A); assay: Biochemical assay for ULK1.3 (coupled pyruvate kinase/lactate dehydrogenase assay, peptide substrate); settings: 0.1 nM ULK1 (residues 1-283), 1 mM ATP
property: IC50

Lookup result for `CN1CCN(c2ccc(Nc3cc(NCCCN4CCCCC4=O)c(C(F)(F)F)cn3)cc2)CC1` ; measured IC50: 1 to 25 nM

Lookup result for `CC(C)c1cc(N2CCN(C)CC2)ccc1Nc1ncc(C(F)(F)F)c(NCCCN2CCCCC2=O)n1` ; measured IC50: 1 to 25 nM

Lookup result for `CCc1cc(N2CCN(C)CC2)ccc1Nc1ncc(C2CC2)c(NCCCN2CCOCCC2=O)n1` ; measured IC50: > 500 nM

Lookup result for `CCc1cc(N2CC3CCC(C2)N3C)ccc1Nc1ncc(C(F)(F)F)c(NCCCN2CCCCC2=O)n1` ; measured IC50: 1 to 25 nM

Lookup result for `CN(C)CC1CN(c2ccc(Nc3ncc(C(F)(F)F)c(NCCCN4CCOCCC4=O)n3)c(C3CC3)c2)C1` ; measured IC50: 1 to 25 nM

***
Lookup result for `CCc1cc(N2CCCN(C)CC2)ccc1Nc1ncc(C(F)(F)F)c(NCCCN2CCOCCC2=O)n1` ; measured IC50: 1 to 25 nM

Lookup result for `CCc1cc(N2CCN(C)CC2)ccc1Nc1ncc(Cl)c(NCCCN2CCCOC2=O)n1` ; measured IC50: 25 to 100 nM

Lookup result for `CCc1cc(N2CCN(C)CC2)ccc1Nc1ncc(C(F)(F)F)c(NCCCN2CC(C)(C)C2=O)n1` ; measured IC50: 25 to 100 nM

* * *

Entries annotated with measured IC50
test system: ULK kinase; test: pATG13 levels of mutant KRas A549 cells after treatment with ULK inhibitors in combination with trametinib (ELISA); assay type: cell-based, human; conditions: A549 (KRAS mutant) lung cancer cells, 250 nM trametinib, overnight, pS318-ATG13

Lookup result for `O=C1CCOCCN1CCCNc1nc(Nc2ccc(N3CCNCC3)cc2C2CC2)ncc1C(F)(F)F` ; measured IC50: 10 to 100 nM

***
Lookup result for `COCc1cc(N2CCN(C)CC2)ccc1Nc1ncc(C(F)(F)F)c(NCCCN2CCOCCC2=O)n1` ; measured IC50: 100 to 300 nM

Lookup result for `Cc1cc(C2CCN(C)CC2)ccc1Nc1ncc(C(F)(F)F)c(NCCCN2CCCCC2=O)n1` ; measured IC50: 100 to 300 nM

Lookup result for `CCc1cc(N2CCN(C)CC2)ncc1Nc1ncc(C(F)(F)F)c(NCCCN2CCOCCC2=O)n1` ; measured IC50: 100 to 300 nM

Lookup result for `CCc1cc(N2CCN3CCC[C@H]3C2)ccc1Nc1ncc(C(F)(F)F)c(NCCCN2CCOCCC2=O)n1` ; measured IC50: 300 to 600 nM

* * *

Target: ULK1 kinase (Homo sapiens, UniProt O75385)
Sequence (O75385 with tags, fused parts or gaps): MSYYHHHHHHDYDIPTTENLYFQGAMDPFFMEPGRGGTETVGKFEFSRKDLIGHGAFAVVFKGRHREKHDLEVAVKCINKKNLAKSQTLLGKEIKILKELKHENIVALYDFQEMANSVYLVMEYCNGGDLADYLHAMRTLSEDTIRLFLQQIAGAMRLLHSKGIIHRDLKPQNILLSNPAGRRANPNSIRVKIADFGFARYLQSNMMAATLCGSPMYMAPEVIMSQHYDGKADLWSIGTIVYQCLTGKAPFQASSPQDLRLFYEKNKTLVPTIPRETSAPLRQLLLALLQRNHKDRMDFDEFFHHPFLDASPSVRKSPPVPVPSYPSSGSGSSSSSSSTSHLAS
pIC50: −log10 of the molar value.
property: pIC50

Note to self: pIC50 of `Cc1cc(N2CCN(C(C)C)CC2)ccc1Nc1ncc(C(F)(F)F)c(NCCCN2CCCCC2=O)n1` with ULK1 kinase (Homo sapiens, UniProt O75385) was 7.60 to 9.00

Note to self: pIC50 of `Cc1cc(C2CCN(C)CC2)ccc1Nc1ncc(C(F)(F)F)c(NCCCN2CCCCC2=O)n1` with ULK1 kinase (Homo sapiens, UniProt O75385) was 7.00 to 7.60

Note to self: pIC50 of `Cc1cc(N2CCN(C3CCC3)CC2)ccc1Nc1ncc(C(F)(F)F)c(NCCCN2CCCCC2=O)n1` with ULK1 kinase (Homo sapiens, UniProt O75385) was 7.60 to 9.00

***
Note to self: pIC50 of `Cc1cc(N2CCN(CCF)CC2)ccc1Nc1ncc(C(F)(F)F)c(NCCCN2CCCCC2=O)n1` with ULK1 kinase (Homo sapiens, UniProt O75385) was 6.30 to 7.00

Note to self: pIC50 of `Cc1cc(N2CCOCC2)ncc1Nc1cc(NCCCN2CCCCC2=O)c(C(F)(F)F)cn1` with ULK1 kinase (Homo sapiens, UniProt O75385) was < 6.30

Note to self: pIC50 of `Cc1cc(C2CCNCC2)ccc1Nc1ncc(Cl)c(NCCCN2CCCCC2=O)n1` with ULK1 kinase (Homo sapiens, UniProt O75385) was < 6.30
